# credit: patent US20180185504A1

target.system: T1, hPRLR.mmh (soluble monomeric human PRLR) (human)
T1 construct: called soluble monomeric PRLR protein
T1 chain: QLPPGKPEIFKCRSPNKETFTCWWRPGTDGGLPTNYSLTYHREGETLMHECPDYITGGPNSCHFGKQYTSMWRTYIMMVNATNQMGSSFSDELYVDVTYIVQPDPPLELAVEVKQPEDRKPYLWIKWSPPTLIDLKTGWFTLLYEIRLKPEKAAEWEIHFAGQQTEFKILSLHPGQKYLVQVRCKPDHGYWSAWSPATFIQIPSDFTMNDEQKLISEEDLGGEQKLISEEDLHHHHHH
protocol.notes: SPR Biacore, 25 C, mAb capture
metric.name: Kd (nM)
Reply numerically in nM, unit not repeated.

// Kd lookup, binder = H1H6975N (antibody, human IgG1, V domains shown, Tested with human IgG1 Fc (H1H); also called H2M6975N) VH: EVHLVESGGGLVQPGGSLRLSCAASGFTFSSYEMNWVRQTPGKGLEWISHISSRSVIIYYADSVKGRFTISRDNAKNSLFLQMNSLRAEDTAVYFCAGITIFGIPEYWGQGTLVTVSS VL: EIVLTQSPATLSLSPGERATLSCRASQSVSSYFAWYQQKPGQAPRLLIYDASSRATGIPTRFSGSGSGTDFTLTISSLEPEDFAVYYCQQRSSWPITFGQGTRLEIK , result: 0.49

What the record says about H1H6782P (antibody, human IgG1, V domains shown, Human IgG1 Fc (H1H)) VH: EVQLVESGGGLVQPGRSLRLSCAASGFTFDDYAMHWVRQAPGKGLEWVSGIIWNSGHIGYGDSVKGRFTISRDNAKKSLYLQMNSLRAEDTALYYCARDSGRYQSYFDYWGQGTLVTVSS VL: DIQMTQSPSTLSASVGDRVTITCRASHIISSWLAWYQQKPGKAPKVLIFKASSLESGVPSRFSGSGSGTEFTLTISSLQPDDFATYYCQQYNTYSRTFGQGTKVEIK : Kd is 0.685

The reported value for H1H6803P (antibody, human IgG1, V domains shown, Human IgG1 Fc (H1H)) VH: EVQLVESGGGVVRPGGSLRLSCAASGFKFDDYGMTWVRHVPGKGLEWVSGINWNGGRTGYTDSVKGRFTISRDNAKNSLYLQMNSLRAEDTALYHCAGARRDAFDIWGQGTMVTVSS VL: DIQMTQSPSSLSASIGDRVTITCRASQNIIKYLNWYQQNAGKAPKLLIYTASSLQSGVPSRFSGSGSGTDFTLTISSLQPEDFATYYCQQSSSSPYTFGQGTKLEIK in terms of Kd is 1.67
